Where do the numbers come from? From paper PMC7983170.

- tested-target: ABCG2 (Homo sapiens)
- Sequence (Q9UNQ0 whole entry): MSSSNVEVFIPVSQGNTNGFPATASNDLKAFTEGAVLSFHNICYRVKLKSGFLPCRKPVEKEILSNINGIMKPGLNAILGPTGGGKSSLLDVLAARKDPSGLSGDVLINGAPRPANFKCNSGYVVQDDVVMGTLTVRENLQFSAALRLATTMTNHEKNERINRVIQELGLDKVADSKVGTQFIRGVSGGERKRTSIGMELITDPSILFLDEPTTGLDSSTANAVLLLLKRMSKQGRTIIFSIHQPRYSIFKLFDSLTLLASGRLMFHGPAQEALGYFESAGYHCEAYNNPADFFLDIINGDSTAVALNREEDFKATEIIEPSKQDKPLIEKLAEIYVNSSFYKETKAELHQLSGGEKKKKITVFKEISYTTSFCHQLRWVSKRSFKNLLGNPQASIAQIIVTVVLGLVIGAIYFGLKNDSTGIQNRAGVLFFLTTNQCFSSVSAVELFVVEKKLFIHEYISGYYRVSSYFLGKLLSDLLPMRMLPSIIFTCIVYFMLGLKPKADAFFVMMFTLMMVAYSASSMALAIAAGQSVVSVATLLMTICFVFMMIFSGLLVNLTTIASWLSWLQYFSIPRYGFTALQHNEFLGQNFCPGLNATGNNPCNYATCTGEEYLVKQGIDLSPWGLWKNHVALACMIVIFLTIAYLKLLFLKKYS
- experimental-protocol: stimulation of vanadate-sensitive ATPase activity in membrane vesicles
- Format: biochemical
measured-parameter: EC50

[in] Request the reported EC50 associated with O=C(CCCCCCNC(=O)c1cnc(N(c2ccccc2)c2ccccc2)nc1)NO
[out] ~14.7 µM
